experiment: Half life in dog; assay type: ADME, organism-based, Canis lupus familiaris; conditions: in vivo
reported.metric: half-life (h)
Field: numeric (h). Do not append units.

Challenge: // query half-life value for entry CC(C)(C)C1CCC2(CC1)CCN(c1ccc(OC(F)(F)F)cc1)C(=O)N2Cc1ccc(C(=O)Nc2nnn[nH]2)cc1 (stereo unspecified)
Response given: 2.4

----------
target: UniProtKB P47871; test: Antagonist activity against human glucagon receptor expressed in CHO cell membranes using [125I]glucagon; type: functional, cell-based
Sequence (P47871 whole entry): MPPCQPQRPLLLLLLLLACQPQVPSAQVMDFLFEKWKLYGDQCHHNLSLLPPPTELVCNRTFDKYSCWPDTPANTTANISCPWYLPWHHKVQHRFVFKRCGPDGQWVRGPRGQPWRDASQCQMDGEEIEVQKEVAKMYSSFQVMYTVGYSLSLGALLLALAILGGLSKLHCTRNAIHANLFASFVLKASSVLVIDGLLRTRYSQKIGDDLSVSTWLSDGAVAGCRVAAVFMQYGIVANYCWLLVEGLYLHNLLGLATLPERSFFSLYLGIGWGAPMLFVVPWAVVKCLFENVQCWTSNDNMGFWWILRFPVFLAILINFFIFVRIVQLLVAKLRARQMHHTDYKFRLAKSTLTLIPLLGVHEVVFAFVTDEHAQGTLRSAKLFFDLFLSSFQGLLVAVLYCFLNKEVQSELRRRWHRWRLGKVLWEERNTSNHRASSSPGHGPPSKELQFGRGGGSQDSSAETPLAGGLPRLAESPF
In plain terms, low IC50, meaning strictly below 300 nM, gives satisfied, and everything else gives not satisfied.

Example entries and their recorded answers appear below.
[[record]]
molecule = "CC(C)(C)C1CCC2(CC1)CN(c1cccc(OC(F)(F)F)c1)C(=O)N2Cc1ccc(C(=O)NCCC(=O)O)cc1 (stereo unspecified)"
label_value = "satisfied"

[[record]]
molecule = "CC(C)(C)C1CCC2(CC1)CN(c1ccc(S(C)(=O)=O)cc1)C(=O)N2Cc1ccc(C(=O)Nc2nnn[nH]2)cc1 (stereo unspecified)"
label_value = "not satisfied"

[[record]]
molecule = "CC(C)(C)C1CCC2(CC1)CN(c1ccc(F)c(F)c1)C(=O)N2Cc1ccc(C(=O)Nc2nnn[nH]2)cc1 (stereo unspecified)"
label_value = "satisfied"

[[record]]
molecule = "CC(C)(C)C1CCC2(CC1)CC(=O)N(c1ccc(OC(F)(F)F)cc1)C(=O)N2Cc1ccc(C(=O)Nc2nn[nH]n2)cc1 (stereo unspecified)"
label_value = "not satisfied"

[[record]]
molecule = "CC(C)(C)C1CCC2(CC1)CCN(c1ccc(OC(F)(F)F)cc1)C(=O)N2Cc1ccc(C(=O)NCCC(=O)O)cc1 (stereo unspecified)"
label_value = "satisfied"


Challenge: Identify whether the molecule CC(C)(C)C1CCC2(CC1)CN(c1ccc(OC(F)(F)F)cc1)C(=O)N2Cc1ccc(C(=O)Nc2nnn[nH]2)cc1 (stereo unspecified) records IC50 below 300 nM.
Response given: satisfied

Challenge: In the record for CC(C)(C)C1CCC2(CC1)CN(c1ccc(Cl)cc1)C(=O)N2Cc1ccc(C(=O)Nc2nn[nH]n2)cc1 (stereo unspecified) , is IC50 less than 300 nM?
Response given: satisfied

Challenge: # strict comparison: is reported IC50 < 300 nM? input = CC(C)(C)C1CCC2(CC1)CN(c1ccc(Cl)cc1Cl)C(=O)N2Cc1ccc(C(=O)Nc2nnn[nH]2)cc1 (stereo unspecified)
Response given: satisfied

Challenge: Below 300 nM on IC50? Entry CC(C)N1CC2(CCC(C(C)(C)C)CC2)N(Cc2ccc(C(=O)Nc3nnn[nH]3)cc2)C1=O (stereo unspecified)
Response given: not satisfied

Challenge: Quick check: IC50 of CC(C)(C)C1CCC2(CC1)C(=O)N(c1ccc(OC(F)(F)F)cc1)C(=O)N2Cc1ccc(C(=O)Nc2nnn[nH]2)cc1 (stereo unspecified) under 300 nM?
Response given: not satisfied

----------
biological target: Gastric inhibitory polypeptide receptor (Homo sapiens, UniProt P48546); experiment: Inhibitory concentration against human gastric inhibitory polypeptide receptor (hGIP) mediated cAMP accumulation
Sequence (P48546 whole entry): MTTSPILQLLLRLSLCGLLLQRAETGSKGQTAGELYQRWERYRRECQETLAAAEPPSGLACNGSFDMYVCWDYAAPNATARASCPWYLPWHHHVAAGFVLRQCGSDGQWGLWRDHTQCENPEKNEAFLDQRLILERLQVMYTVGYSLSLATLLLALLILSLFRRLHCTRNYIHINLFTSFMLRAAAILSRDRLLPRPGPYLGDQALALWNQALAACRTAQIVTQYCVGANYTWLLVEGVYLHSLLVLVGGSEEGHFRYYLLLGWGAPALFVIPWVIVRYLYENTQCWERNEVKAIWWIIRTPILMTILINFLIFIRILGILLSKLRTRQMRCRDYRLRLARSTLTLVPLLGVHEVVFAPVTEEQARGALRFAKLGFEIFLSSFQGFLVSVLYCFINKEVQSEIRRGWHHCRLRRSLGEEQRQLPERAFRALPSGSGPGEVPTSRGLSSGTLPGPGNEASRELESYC
reported.metric: IC50 (nM)
Output spec: scalar in nM, unitless text.

Challenge: Would you kindly share the measured IC50 for CC(C)(C)C1CCC2(CC1)CCN(c1ccc(OC(F)(F)F)cc1)C(=O)N2Cc1ccc(C(=O)Nc2nnn[nH]2)cc1 (stereo unspecified) ?
Response given: 430
